Overview of recorded Signal/background for various binders
- targetOfAssay: T1, KEA peptide complexed with HLA-A*02:01 on T2 cells (human)
- T1 construct: whole, on cells
- protocolNotes: flow cytometry, peptide-loaded T2 cells;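 also: binding of single-chain Fv antibody constructs, raised in XenoMouse, to peptide-pulsed T2 cells measured by flow cytometry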
Lab note: jot down the number only; don't add units.

Please review the entries below; each comes with its answer.
binder: 18179-D7 (scFv, scFv in bacterial lysate, detected with anti-Flag M2) scFv: EVQLLESGGGLVQPGGSLRLSCAASGFTFSNAWMSWVRQAPGKGLEWVGRIKGNTYGGTTDYAAPVKGRFTISRDDSKNTLFLQMNSLKTEDTAVYYCTTPSYSGSYYNYFSVMDVWGQGTTVTVSSGGGGSGGGGSGGGGSELVMTQSPSSLSASVGDRVTITCRTSQSISSYLNWYQQKPGRAPKLLIFAASSLQGGVPSRFSGSGSGTDFTLTISSLQPEDFATYYCQQTYSMPFTFGPGTKVDIK
recordedMeasurement: 1

binder: 18089-C9 (scFv, scFv in bacterial lysate, detected with anti-Flag M2) scFv: EVQLLESGPTLVKPTQTLTLTCTFSGFSFTTHKMGVDWIRQPPGKALEWLALIYWNDDKRYSPSLQSRLTITKDTSKNQVVLTMTNMDPVDTATYYCAYRRYNWNYENWFDPWGQGTLVTVSSGGGGSGGGGSGGGGSELQMTQSPSSLSASVGDRVTITCRASQFISSYLNWYQQKPGKAPKLLIYAASSLQSGVPSRFSGRGSGTDFTLTISSLQPEDFATYYCQQSYSTPFTFGPGTKVEIK
recordedMeasurement: 1

binder: 18089-D12 (scFv, scFv in bacterial lysate, detected with anti-Flag M2) scFv: EVQLLESGGGVVQPGRSLRLSCAASGFTFSTYGMHWVRQAPGKGLEWVAVISYDGSNKYYADSVKGRFTISRDDSKNTLYLQMNSLRAEDTAVYYCARGQLLTGYWGQGTLVTVSSGGGGSGGGGSGGGGSELVMTQSPSSLSASVGDRVTITCRASQGISNYLAWYQQKPGKVPKLLIYAASTLQSGVPSRFSGSGSGTDFTLTISSLQPEDVATYYCQKYNSAPFTFGPGTKVEIK
recordedMeasurement: 1

binder: 18179-G12 (scFv, scFv in bacterial lysate, detected with anti-Flag M2) scFv: EVQLLESGAEVKKPGASVKVSCKASGYTFTRNGLSWVRQAPGQGLEWMGWISGYNGDTNYAQKLQGRGTMTTDTSTSTAYMELRSLRSDDTAVYYCARGRATFDYWGQGTLVTVSSGGGGSGGGGSGGGGSELVMTQSPSSLSASVGDRVTITCRASQGISNYLAWYQQKPGKVPKLLISAASTLQSGVPSRFSGSGSGTDFTLTISSLQPEDVATYYCQKYNSAPFTFGPGTKLEIK
recordedMeasurement: 0.9

binder: 18179-C1 (scFv, scFv in bacterial lysate, detected with anti-Flag M2) scFv: EVQLLESGAEVKKPGASVKVSCKASGYTFTRNGLSWVRQAPGQGLEWMGWISGYNGDTNYAQKLQGRGTMTTDTSTSTAYMELRSLRSDDTAVYYCARGRATFDYWGQGTLVTVSSGGGGSGGGGSGGGGSELVMTQSPSSLSASVGDRVTITCRASQGISNYLAWYQQKPGKVPKLLISAASTLQSGVPSRFSGSGSGTDFTLTISSLQPEDVATYYCQKYNSAPFTFGPGTKVDIK
recordedMeasurement: 1

stdin: Sample 18081-B9 (scFv, scFv in bacterial lysate, detected with anti-Flag M2) scFv: EVQLLESGPGLVKPSETLSLTCTVSGDSISSSRYYWGWIRQPPGKGLEWIGSIYYSGSTYYNPSLKSRVTISVDTSKNQFSLKLSSVTAADTAVYYCARGIFGVITYFDYWGQGTLVTVSSGGGGSGGGGSGGGGSELVMTQSPDSLAVSLGERATINCKSSQSVLYSSNNKNYLAWYQQKPGQPPKLLIYWASTRESGVPDRFSGSGSGTDFTLTISSLQAEDVAVYYCQQFYSTPITFGQGTRLEIK — what was its Signal/background?
stdout: 1.1

stdin: Sample 18182-B5 (scFv, scFv in bacterial lysate, detected with anti-Flag M2) scFv: EVQLLESGGGLVQPGGSLRLSCAASGFTFSSHAMSWVRQAPGKGLEWVSAISGSGGGTYYADSVKGRFTISRDNSKNTLYLQMNSLRAEDTAVYYCATGKGVHLGFDYWGQGTLVTVSSGGGGSGGGGSGGGGSELVLTQPPSVSVAPGQTARITCGGNNIGSKSVHWYQQKPGQAPVLVVYDDNDRPSGIPERFSGSNFGNTATLIISRVEAGDEADYYCQVWDSSSDHVVFGGGTKLTVL — what was its Signal/background?
stdout: 0.9

stdin: Sample 18182-G2 (scFv, scFv in bacterial lysate, detected with anti-Flag M2) scFv: EVQLLESGGGLVQPGGSLRLSCAASGFTFSSHAMSWVRQAPGKGLEWVSAISGSGGGTYNADSVKGRFTISRDNSKNTLYLQMNSLRAEDTAAYYCVTGKGVHLGFDYWGQGTLVTVSSGGGGSGGGGSGGGGSELVLTQPPSVSVAPGQTARITCGGNNIGSKSVHWYQQKPGQAPVMVVYDDNDRPSGIPERFSGSNSGNTATLTISRVEAGDEADYYCQVWDSSSDHVIFGGGTKLTVL — what was its Signal/background?
stdout: 0.9

stdin: Sample 18181-C9 (scFv, scFv in bacterial lysate, detected with anti-Flag M2) scFv: EVQLLESGPGLVKPSQTLSLTCTVSGDSISSNPYYWSWIRQLPGKGLEWIGYISYSGSTFYNPSLKSRVTISVDTSKNQFSLNLTSVTAADTAVYYCARDRLWFGVLNYYYGMDVWGLGTTVTVSSGGGGSGGGGSGGGGSELVLTQSPLSLPVTPGEPASISCRSSQSLLHRNGYNYLDWYLQKPGQSPQLLIYLGSNRASGVPDRFSGSGSGTDFTLKISRVEAEDVGVYYCMQGLQTPFTFGPGTKVEIK — what was its Signal/background?
stdout: 0.9

stdin: Sample 18179-H7 (scFv, scFv in bacterial lysate, detected with anti-Flag M2) scFv: EVQLLESGGGLVQPGGSLRLSCAASGFTFSNAWMSWVRQAPGKGLEWVGRIKSKTYGGTTDYAAPVKGRFTISRDDSKNTLYLQMNSLKTEDTAVYYCTTPSYSGSYYNYFSVMDVWGQGTTVTVSSGGGGSGGGGSGGGGSELQMTQSPSSLSASVGDRVTITCRTSQSISSYLNWFQQKPGKAPKLLIFAASSLQSGVPSRFSGSGSGTDFTLTISSLQPEDFATYYCQQSYSSPFTFGPGTKVEIK — what was its Signal/background?
stdout: 1

stdin: Sample 18181-A6 (scFv, scFv in bacterial lysate, detected with anti-Flag M2) scFv: EVQLLESGGGLVQPGGSLRLSCAASGFTFSNAWMSWVRQAPGKGLEWVGRIKGNTYGGTTDYAAPVKGRFTISRDDSKNTLYLQMNSLKTEDTAVYYCTTPSYSGSYYNYFSVMDVWGQGTTVTVSSGGGGSGGGGSGGGGSELVMTQSPSSLSASVGDRVTITCRASQSISSYLNWYQQKPGRAPKLLIFAASSLQGGVPSRFSGSGSGTDFTLTISSLQPEDFATYYCQQTYSMPFTFGPGTKLEIK — what was its Signal/background?
stdout: 0.9
